# condition.context: Crystal; DTA
readout.type: Normal melting temperature (°C)
Return type: number; implicit unit °C.

A selection of reference data follows.
O=C(O)c1cccc(Cl)c1 [3-chlorobenzoic acid]; 154.72
O=C(O)c1cccc(Br)c1 [3-bromobenzoic acid]; 156.93

Query: // query Normal melting temperature value for entry O=C(O)c1ccccc1Br [2-bromobenzoic acid]
Reply: 148.5

Query: Give the measured Normal melting temperature of O=C(O)c1ccccc1Cl [2-chlorobenzoic acid] .
Reply: 140.80

Query: Can you share its Normal melting temperature? I mean this compound: O=C(O)c1ccc(Br)cc1 [4-bromobenzoic acid]
Reply: 253.19

----------
Attribute: Molar enthalpy of transition or fusion
# assay.method.text: Molar enthalpy of transition or fusion
# condition.context: Crystal; DSC
Numeric answer only, unit kJ/mol assumed.

Solved entries (count: 4):
O=C(O)c1ccc(Br)cc1; 30.9
O=C(O)c1cccc(Br)c1; 24.9
O=C(O)c1ccccc1Br; 24.8
O=C(O)c1ccccc1Cl; 25.2

Now examine the next entry.
Query: Give the measured Molar enthalpy of transition or fusion of O=C(O)c1cccc(Cl)c1 .
Reply: 23.7
